test: Phase I study CXR1002-001: plasma pharmacokinetics (LC-MS/MS)
Format: in vivo, human
particulars: human, plasma, oral, 750 mg, Patient 026, 750 mg, person, plasma, 336 hr (Day 15); read-out: Concentration
readout kind: concentration at 336 h
Remember to follow the number with its unit.

# get_value(readout='concentration at 336 h', item= O=C(O)C(F)(F)C(F)(F)C(F)(F)C(F)(F)C(F)(F)C(F)(F)C(F)(F)F )
352 µM

* * *

test: Phase I study CXR1002-001: plasma pharmacokinetics (LC-MS/MS)
Assay type: in vivo, human
particulars: human, plasma, oral, 600 mg, Patient 022, 600 mg, person, plasma, 360 hr (Day 16); read-out: Concentration
readout kind: concentration at 360 h (µM)
Answer in µM, number only, no unit symbol.

# get_value(readout='concentration at 360 h', item= O=C(O)C(F)(F)C(F)(F)C(F)(F)C(F)(F)C(F)(F)C(F)(F)C(F)(F)F [CXR1002] )
427

* * *

test: Phase I study CXR1002-001: plasma pharmacokinetics (LC-MS/MS)
Type: in vivo, human
particulars: human, plasma, oral, 950 mg, Patient 031, 950 mg, person, plasma, 170 hr; read-out: Concentration
readout kind: concentration at 170 h (µM)
Answer in µM, number only, no unit symbol.

# get_value(readout='concentration at 170 h', item= O=C(O)C(F)(F)C(F)(F)C(F)(F)C(F)(F)C(F)(F)C(F)(F)C(F)(F)F )
513

* * *

test: Phase I study CXR1002-001: plasma pharmacokinetics (LC-MS/MS)
Type: in vivo, human
particulars: human, plasma, oral, 300 mg, Patient 011 Dose 300 mg; 843 hr; read-out: Concentration
readout kind: concentration at 843 h (µM)
Answer in µM, number only, no unit symbol.

# get_value(readout='concentration at 843 h', item= O=C(O)C(F)(F)C(F)(F)C(F)(F)C(F)(F)C(F)(F)C(F)(F)C(F)(F)F )
350

* * *

test: Phase I study CXR1002-001: plasma pharmacokinetics (LC-MS/MS)
Format: in vivo, human
particulars: human, plasma, po, 1200 mg, Patient 038, 1200 mg weekly oral dose, Time 864 hr (Day 37); read-out: Concentration (plasma level)
readout kind: concentration at 864 h (µM)
Answer in µM, number only, no unit symbol.

# get_value(readout='concentration at 864 h', item= O=C(O)C(F)(F)C(F)(F)C(F)(F)C(F)(F)C(F)(F)C(F)(F)C(F)(F)F )
958

* * *

test: Phase I study CXR1002-001: plasma pharmacokinetics (LC-MS/MS)
Type: in vivo, human
particulars: human, plasma, oral, 750 mg, Patient 027, 750 mg, person, plasma, 192 hr (Day 9); read-out: Concentration
readout kind: concentration at 192 h (µM)
Answer in µM, number only, no unit symbol.

# get_value(readout='concentration at 192 h', item= O=C(O)C(F)(F)C(F)(F)C(F)(F)C(F)(F)C(F)(F)C(F)(F)C(F)(F)F )
411

* * *

test: Phase I study CXR1002-001: plasma pharmacokinetics (LC-MS/MS)
Assay type: in vivo, human
particulars: human, plasma, oral, 200 mg, Patient 010 Dose 200 mg; 2 hr; read-out: Concentration
readout kind: concentration at 2 h (µM)
Answer in µM, number only, no unit symbol.

# get_value(readout='concentration at 2 h', item= O=C(O)C(F)(F)C(F)(F)C(F)(F)C(F)(F)C(F)(F)C(F)(F)C(F)(F)F [CXR1002] )
21.1

Where do these numbers come from? They come from patent US20130029928A1.
